experiment: Ratio of binding affinity of h5 to that of binding affinity of h2
measured-property: Ratio

compound	Ratio
C[C@@H](c1c[nH]c2ccccc12)C(NC(=O)C1CCN(Cc2ccccc2)CC1)C(=O)N[C@@H](CCCCN)C(=O)OC(C)(C)C (some centres undefined)	133

(A) C[C@@H](c1c[nH]c2ccccc12)C(NC(=O)C1CCN(C(=O)c2ccccc2)CC1)C(=O)N[C@@H](CCCCN)C(=O)OC(C)(C)C (some centres undefined)
(B) CC(C)C(=O)N1CCC(C(=O)NC(C(=O)N[C@@H](CCCCN)C(=O)OC(C)(C)C)[C@@H](C)c2c[nH]c3ccccc23)CC1 (some centres undefined)
Out of A and B , name the one with the higher Ratio. Field: selected label. Fill in the label of the entry you choose.
A
